Provenance of the data: paper PMC4965010

Each record here notes measured inhibition at 200 µM.
Target: human FXIIIa (Homo sapiens, UniProt P00488)
Construct: purchased Haematologic Technologies (Essex Junction, VT)
Sequence (P00488 39-732 limits assumed): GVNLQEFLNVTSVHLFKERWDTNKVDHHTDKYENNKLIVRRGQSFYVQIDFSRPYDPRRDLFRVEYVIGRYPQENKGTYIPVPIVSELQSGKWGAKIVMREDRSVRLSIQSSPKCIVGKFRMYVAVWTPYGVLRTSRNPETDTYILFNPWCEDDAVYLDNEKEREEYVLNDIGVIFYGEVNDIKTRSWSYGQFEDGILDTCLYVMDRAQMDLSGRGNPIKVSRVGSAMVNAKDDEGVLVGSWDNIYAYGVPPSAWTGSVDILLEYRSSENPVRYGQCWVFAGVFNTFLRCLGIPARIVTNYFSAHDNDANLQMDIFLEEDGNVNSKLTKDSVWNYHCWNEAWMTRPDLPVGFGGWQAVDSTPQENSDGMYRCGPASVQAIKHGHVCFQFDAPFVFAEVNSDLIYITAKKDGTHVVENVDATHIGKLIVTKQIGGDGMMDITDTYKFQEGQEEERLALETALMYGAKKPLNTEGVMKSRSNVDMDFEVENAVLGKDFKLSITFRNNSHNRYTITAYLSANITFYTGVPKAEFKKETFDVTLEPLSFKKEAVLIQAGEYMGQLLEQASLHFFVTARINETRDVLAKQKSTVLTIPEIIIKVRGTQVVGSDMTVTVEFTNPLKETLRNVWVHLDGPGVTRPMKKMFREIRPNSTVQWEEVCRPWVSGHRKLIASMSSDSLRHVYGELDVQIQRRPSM
Experiment: bisubstrate, fluorescence-based transglutamination assay (dansylcadaverine / N,N-dimethylcasein)
Assay type: biochemical
Settings: pH 8, 200 μM; pH 8.0, 37°C; read-out: FXIIIa inhibition at 200 μM (%)
Numeric only. Scale: %

INSERT INTO assay_data (compound, target_desc, measured_property, uom, measured_result) VALUES
  ('O=c1c(OS(=O)(=O)O)c(-c2ccc(OS(=O)(=O)O)c(OS(=O)(=O)O)c2)oc2cc(OS(=O)(=O)O)cc(OCCCOc3cc(OS(=O)(=O)O)cc4oc(-c5ccc(OS(=O)(=O)O)c(OS(=O)(=O)O)c5)c(OS(=O)(=O)O)c(=O)c34)c12 [Molecule 4]', 'human FXIIIa (Homo sapiens, UniProt P00488)', 'inhibition at 200 µM', '%', 67);

As a next step, examine the compound that follows.
Quick one: inhibition at 200 µM of O=c1c(OS(=O)(=O)O)c(-c2ccc(OS(=O)(=O)O)c(OC/C=C/COc3cc(-c4oc5cc(OS(=O)(=O)O)cc(O)c5c(=O)c4OS(=O)(=O)O)ccc3OS(=O)(=O)O)c2)oc2cc(OS(=O)(=O)O)cc(O)c12 [Molecule 8] ?
84
